- target-system: Nuclear receptor ROR-gamma (Homo sapiens, UniProt P51449)
- Sequence (P51449 whole entry, the tested form may be a part): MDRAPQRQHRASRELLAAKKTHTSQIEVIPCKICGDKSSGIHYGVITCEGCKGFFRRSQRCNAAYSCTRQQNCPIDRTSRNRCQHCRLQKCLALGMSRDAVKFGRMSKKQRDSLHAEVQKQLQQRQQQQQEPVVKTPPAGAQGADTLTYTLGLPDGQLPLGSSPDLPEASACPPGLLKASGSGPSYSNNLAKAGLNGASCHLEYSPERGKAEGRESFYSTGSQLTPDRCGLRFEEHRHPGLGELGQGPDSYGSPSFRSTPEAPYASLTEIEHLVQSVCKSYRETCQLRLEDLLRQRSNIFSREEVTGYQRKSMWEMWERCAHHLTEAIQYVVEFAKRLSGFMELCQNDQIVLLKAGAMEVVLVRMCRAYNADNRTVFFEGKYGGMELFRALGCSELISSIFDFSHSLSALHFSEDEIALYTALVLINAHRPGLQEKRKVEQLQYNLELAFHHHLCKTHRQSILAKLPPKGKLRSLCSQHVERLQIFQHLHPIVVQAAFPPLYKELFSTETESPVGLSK
- procedure-details: Antagonist activity at transactivation domain of RORgammat (unknown origin) expressed in Drosophila Schneider cells co-expressing Gal4-DNA binding domain
- Format: cell-based, Schneider 2
- run-parameters: read-out: IC50
pIC50: −log10 of the molar value.
Entries and their pIC50 values follow.
observation-type: pIC50

INSERT INTO results (molecule, meas_value) VALUES
  ('COc1cc(O)c(C(CC(=O)N2CCCC2)c2ccc3c(c2)OCO3)c(OC)c1 (stereo not drawn)', '< 4.30'),
  ('COc1cc(O)c(C(CC(=O)Nc2ccc(C)cc2)c2ccc3c(c2)OCO3)c(OC)c1 (stereo not drawn)', '< 4.30'),
  ('CCN(CC)C(=O)CC(c1ccc2c(c1)OCO2)c1c(O)cc(OC)cc1OC (stereo not drawn)', '< 4.30');

The measurements presented in this section are drawn from ChEMBL document CHEMBL2321802.
